B1: LINE1-mini (parent)
chain: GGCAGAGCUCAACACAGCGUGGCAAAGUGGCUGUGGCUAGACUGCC

variants of: B1; assay: self-cleavage, relative activity (ratio to wild type); higher = more cleavage; in vitro, sequencing; the parent is a self-cleaving ribozyme
MEASURED ENDPOINT: self-cleavage

The recorded self-cleavage for A25C G36C is 0.07

The recorded self-cleavage for A12C A41C is 0.02

The recorded self-cleavage for A6G C23U is 0.1

The recorded self-cleavage for A16G G22U is 0.63

The recorded self-cleavage for C3G A39U is 0.27

The recorded self-cleavage for G21U U28G is 0.52

The recorded self-cleavage for A12G C13U is 0.06

The recorded self-cleavage for A14C C42A is 0.07

The recorded self-cleavage for G22A U43A is 0.06

The recorded self-cleavage for A41C C45A is 0.11

The recorded self-cleavage for A39G A41U is 0.07

The recorded self-cleavage for U28G C37G is 0.03

The recorded self-cleavage for G7A G40A is 0.19

The recorded self-cleavage for A11G C18U is 0.04

The recorded self-cleavage for G17U U32G is 0.09

The recorded self-cleavage for G40A C42G is 0.09
